Origin of measurements: PubChem BioAssay

assay_info: modulators of HCV replicon luciferase signal, primary screen, HCV replication inhibitor project, Huh7 cells, luciferase reporter (AID 1109);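 further: huh7 hepatoma cells harbouring a luciferase neomycin HCV replicon reporter; luciferase luminescence as measure of HCV replicon replication; test concentration not given here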
assay_conditions: 48 h, higher = more signal
Reported z-score values for the following compounds.
readout: z-score

[
  {
    "smiles_text": "COc1ccc([Si](C)(C)[C@H]2[C@H](CC(=O)N3Cc4ccccc4C[C@H]3CO)O[C@@]3(C(=O)N(Cc4cccc(N5C(=O)COc6ccccc65)c4)c4ccccc43)[C@@H]2C)cc1",
    "reported_value": -3.73
  },
  {
    "smiles_text": "CC(C)[Si](C#C[Si](C(C)C)(C(C)C)C(C)C)(O[C@H](C)c1cn([C@H](C)c2ccccc2)nn1)C(C)C",
    "reported_value": 0.0537
  },
  {
    "smiles_text": "Cc1ccc(S[C@]2(C(=O)NC3CC3)CC(=O)N(Cc3ccccc3C(F)(F)F)[C@@H]2c2ccc(CO)cc2I)cc1",
    "reported_value": -1.55
  },
  {
    "smiles_text": "[N-]=[N+]=NCc1ccccc1C[C@]1(C(=O)NCc2ccccc2)N=C(c2ccc(OCCCO)cc2)O[C@H]1c1ccccc1",
    "reported_value": -1.95
  },
  {
    "smiles_text": "COc1ccc(/C=C/C(=O)c2cccc(OCC(=O)OC(C)(C)C)c2)cc1",
    "reported_value": 1.33
  },
  {
    "smiles_text": "C=CC[C@]1(C(=O)N2CCCCC2)COC(c2ccc(OCCCO)cc2)=N1",
    "reported_value": -1.1
  },
  {
    "smiles_text": "COC(=O)c1c(CC[C@@H](CO)NC(=O)Nc2ccc(OC)cc2)oc(C(=O)Cc2ccccc2)c1C(=O)OC",
    "reported_value": 0.685
  },
  {
    "smiles_text": "Cc1ccc(N2C(=O)c3ccccc3[C@](C)(C(=O)NCC(F)(F)F)[C@@H]2c2ccc(CO)cc2)nc1",
    "reported_value": 0.208
  }
]
